Cellular pTyr Assay [IC50, µg/ml] values by entry
# SYSTEM: c-Met expressed on the surface of human A549 lung carcinoma cells (human, UniProt P08581 25-1390)
# Sequence (P08581 25-1390): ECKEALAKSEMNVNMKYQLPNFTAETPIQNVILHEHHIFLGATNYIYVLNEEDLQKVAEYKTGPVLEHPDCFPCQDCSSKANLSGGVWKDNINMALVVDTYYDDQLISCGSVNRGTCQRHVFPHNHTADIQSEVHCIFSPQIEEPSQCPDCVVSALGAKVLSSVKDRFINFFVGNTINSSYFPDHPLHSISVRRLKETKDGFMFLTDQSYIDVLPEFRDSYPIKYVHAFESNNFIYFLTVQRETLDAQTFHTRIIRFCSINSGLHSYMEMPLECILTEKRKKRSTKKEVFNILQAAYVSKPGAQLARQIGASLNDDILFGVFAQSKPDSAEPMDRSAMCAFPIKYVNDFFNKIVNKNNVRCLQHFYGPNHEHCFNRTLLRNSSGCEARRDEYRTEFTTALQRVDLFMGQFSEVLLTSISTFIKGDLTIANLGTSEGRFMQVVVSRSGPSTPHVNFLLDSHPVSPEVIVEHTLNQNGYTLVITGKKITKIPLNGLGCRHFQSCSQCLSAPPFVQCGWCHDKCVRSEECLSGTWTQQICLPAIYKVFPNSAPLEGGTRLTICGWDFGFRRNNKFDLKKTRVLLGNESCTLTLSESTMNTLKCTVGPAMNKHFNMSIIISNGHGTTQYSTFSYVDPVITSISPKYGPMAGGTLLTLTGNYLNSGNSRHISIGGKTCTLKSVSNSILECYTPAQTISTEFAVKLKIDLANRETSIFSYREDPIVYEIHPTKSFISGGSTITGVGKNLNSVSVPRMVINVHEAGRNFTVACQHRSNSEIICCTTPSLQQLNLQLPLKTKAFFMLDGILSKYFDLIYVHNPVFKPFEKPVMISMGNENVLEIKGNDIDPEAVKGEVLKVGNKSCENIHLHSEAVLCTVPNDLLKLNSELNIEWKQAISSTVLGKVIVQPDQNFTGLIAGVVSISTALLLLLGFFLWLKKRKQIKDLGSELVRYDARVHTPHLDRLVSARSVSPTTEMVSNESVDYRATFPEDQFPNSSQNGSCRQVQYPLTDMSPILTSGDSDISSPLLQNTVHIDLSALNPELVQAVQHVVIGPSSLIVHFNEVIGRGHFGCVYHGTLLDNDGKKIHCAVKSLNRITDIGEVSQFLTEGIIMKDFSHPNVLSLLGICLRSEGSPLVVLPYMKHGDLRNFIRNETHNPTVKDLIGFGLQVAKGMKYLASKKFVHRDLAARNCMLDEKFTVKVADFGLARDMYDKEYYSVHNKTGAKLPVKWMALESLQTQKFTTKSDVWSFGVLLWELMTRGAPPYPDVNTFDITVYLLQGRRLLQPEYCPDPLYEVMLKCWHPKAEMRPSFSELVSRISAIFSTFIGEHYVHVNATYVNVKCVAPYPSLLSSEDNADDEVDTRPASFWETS
# MEASUREMENT_DESCRIPTION: cell-based or functional assay
MEASUREMENT_KIND: Cellular pTyr Assay [IC50, µg/ml] (µg/ml)

{"BINDER": "anti-c-Met monoclonal antibody 9.1.2 (antibody, V domains shown, Human IgG2 kappa; also called hybridoma 9.1.2 (LN 15884); PTA-5027) VH: QVQLQESGPGLVKPSQTLSLTCTVSGGSISSGGYYWSWIRQHPGKGLEWIGYIYYSGSTYYNPSLKSRVTISVDTSKNQFSLKLSSVTAADTAVYYCARDGPLGYCSSTSCPVTGEYYYYGMDVWGQGTTVTVSS VL: EIVLTQSPGTLSLSPGERATLSCRASQSVSNNYLAWYQQKPGQAPRLLIFGASSRATGIPDRFSGSGSGTDFTLTISRLEPEDFAVYYCQQYDISPMYSFGQGTKLEMKR", "MEASUREMENT_KIND": "Cellular pTyr Assay [IC50, µg/ml]", "RESULT_UNIT": "µg/ml", "REPORTED_VALUE": 0.033}
{"BINDER": "anti-c-Met monoclonal antibody 13.3.2L-A91T, H-E42K, S97T (antibody, human IgG2, kappa, V domains shown, positions 42, 97, 14 and 91 count from the N-terminal amino acid and may not count on the entry with its leader) VH: QVQLVQSGAEVKKPGASVKVSCKASGYTFTSYGFSWVRQAPGQGLEWMGWISASNGNTYYAQKLQGRVTMTTDTSTSTAYMELRSLRSDDTAVYYCARVYADYADYWGQGTLVTVSS VL: DIQMTQSPSSVSASVGDRVTITCRASQGINTWLAWYQQKPGKAPKLLIYAASSLKSGVPSRFSGSGSGTDFTLTISSLQPEDFATYYCQQANSFPLTFGGGTKVEIKR", "MEASUREMENT_KIND": "Cellular pTyr Assay [IC50, µg/ml]", "RESULT_UNIT": "µg/ml", "REPORTED_VALUE": 0.032}
{"BINDER": "anti-c-Met monoclonal antibody 8.70.2 (antibody, V domains shown, Human IgG2 kappa; also called hybridoma 8.70.2 (LN 15885); PTA-5028) VH: QLQLQESGPGLVKPSETLSLTCTVSGGSISSSSYYGGWIRQPPGKGLDWIGSIYYSGNTYYNPSLKSRVTISVDTSKNQFSLKLSSVTAADTAVYYCARHSWDYFDYWDQGTLVTVSS VL: DIQMTQSPSSVSASVGDRVTITCRASQGISSWLAWYQQKPGKAPKLLIYAASSLQSGVPSRFSGSGSGTDFTLTISSLQSEDFATYYCQQANSFPITFGPGTKVEIKR", "MEASUREMENT_KIND": "Cellular pTyr Assay [IC50, µg/ml]", "RESULT_UNIT": "µg/ml", "REPORTED_VALUE": 0.143}
{"BINDER": "anti-c-Met monoclonal antibody 8.90.3 (antibody, V domains shown, Human IgG2 kappa) VH: EVQLVESGGGLVQPGGSLRLSCAASGFTFSRYSMNWVRQAPGKGLEWVSYISSRSSTIYYADSVKGRFTMSRDNAKNSLYMQMNSLRDEDTAVYYCGYGDYDYFDYWGQGTLVTVSS VL: DIQMTQSPSSVSASVGDRVIITCRASQGISSWLAWYQQKPGKAPKLLIYAASSLKSGVPSRFSGSGSGTDFTVTISSLQPEDFATYYCQQSNSLPWTFGQGTKVEIKR", "MEASUREMENT_KIND": "Cellular pTyr Assay [IC50, µg/ml]", "RESULT_UNIT": "µg/ml", "REPORTED_VALUE": 0.086}
{"BINDER": "anti-c-Met monoclonal antibody 13.3.2 (antibody, human IgG2, kappa, V domains shown, Human IgG2 kappa from XenoMouse hybridoma; The variable positions X2, X4, X6, X8 correspond to positions 42, 97, 14 (heavy) and 91 (light), where position one is the N-terminal amino acid; these numbers may not count on the entry with its leader; also called PTA-5026) VH: QVQLVQSGAEVKKPGASVKVSCEASGYTFTSYGFSWVRQAPGQGLEWMGWISASNGNTYYAQKLQGRVTMTTDTSTSSAYMELRSLRSDDTAVYYCARVYADYADYWGQGTLVTVSS VL: DIQMTQSPSSVSASVGDRVTITCRASQGINTWLAWYQQKPGKAPKLLIYAASSLKSGVPSRFSGSGSGADFTLTISSLQPEDFATYYCQQANSFPLTFGGGTKVEIKR", "MEASUREMENT_KIND": "Cellular pTyr Assay [IC50, µg/ml]", "RESULT_UNIT": "µg/ml", "REPORTED_VALUE": 0.033}

Hello, the source for this data is patent US20120321614A1, in case you need it.
